Tested on: Lefty1
Assay protocol: Lefty1 binders on small-molecule microarrays, primary screen, biochemical, small-molecule microarray, 635/667 nm fluorescence (AID 1139)
Study conditions: small-molecule microarray binding, fluorescence 635/667; higher = more signal
composite z-score vs -0.2: at or above is label 1, below is label 0.

For orientation, consider the following solved cases.
In [3]: df
Out[3]:
                                   compound  assigned_class
0  COC(=O)[C@H](C)NC(=O)CCC1CC(OC(=O)NCc2cccc3ccccc23)CC2(CCCC(COC(=O)NCC3CCCCC3)O2)O1 (some centres not stated)         label 1
1      COC(=O)[C@H]1COC(c2ccc(OCCCO)cc2)=N1         label 0
2  CC(CCC(=O)OC[C@H]1O[C@H](C#Cc2ccccc2)C=C[C@@H]1Oc1ccc(C)cc1)=NOC[C@@H](O)[C@H]1O[C@@H]2OC(C)(C)O[C@@H]2[C@H]1O         label 1
3  CC(C)(C)OC(=O)CC[C@]1(C(N)=O)COC(c2ccc(OCCCO)cc2)=N1         label 0
4  COC(=O)[C@@H]1N=C(c2ccc(OCCCO)cc2)O[C@@H]1c1ccccc1N=[N+]=[N-]         label 0
5  O=C1NC(=O)C2C1C=CC(C(O)Cc1ccccc1)N2Nc1ccccn1 (configuration not stated)         label 1

Consider the record given below.
# check: composite z-score of CC(C)c1ccc(NN2C(C(O)c3ccc4c(c3)OCO4)C=CC3C(=O)N(c4ccccc4)C(=O)C32)cc1 (configuration not stated) is greater than or equal to -0.2
label 1

* * *

Assay protocol: A549 cell viability effects, profiling panel, calcein-AM fluorescence, 48 h, basal (AID 1162); note: test concentration not given here
Study conditions: higher = more signal
Endpoint: z-score
I only need the number, thanks.

Sample records with z-score:
>>> print(df.to_string())
                                   molecule  numeric_value
0  C[C@@H]1CC[C@H]2C(=O)O[C@H](COc3ccc(C(C)(C)C)cc3)CN2[C@H]1c1ccc(Br)cc1           1.29
1  COc1cccc([C@H]2Oc3ccc(OC)cc3C(=NOC(C)CN3CCCc4nc(C)c(C)cc43)[C@@H]2O)c1 (some centres undefined)        -0.0217
2  CC(C)=CCCC(C)=CCON=C1C[C@@H](O)[C@@H](O)[C@@H]2[C@@H]3C(=O)N(C[C@@H]4CCCO4)C(=O)[C@@H]3CC[C@@H]12          0.113

Would you mind telling me what z-score value was observed for CC(CCN1CCc2nc(-c3ccccc3)c(-c3ccccc3)cc2C1)=NO[C@H](C)c1cn([C@@H]2COC[C@H]2O)nn1 ?
1.9

Would you mind telling me what z-score value was observed for CC(C)(C)OC(=O)CC[C@]1(C(N)=O)COC(c2ccc(OCCCO)cc2)=N1 ?
0.371

Would you mind telling me what z-score value was observed for Cc1ccc(S[C@]2(C(=O)O)CC(=O)N(Cc3ccccc3)[C@@H]2c2ccc(CO)cc2I)cc1 ?
0.282

Would you mind telling me what z-score value was observed for CN1C(=O)C2C=CC(C(O)c3ccc(Br)cc3)N(N(c3ccccc3)c3ccccc3)C2C1=O (centres undefined) ?
1.78

Would you mind telling me what z-score value was observed for COC(=O)CC=C[C@@H](C)[C@@H](C=NO[C@@H](C)c1cc(-c2c(C)cc(C)cc2C)no1)OC ?
-0.542

Would you mind telling me what z-score value was observed for COc1ccc(O[C@H]2C=C[C@@H](c3ccccc3)O[C@@H]2COC(=O)CCC(C)=NO[C@@H](C)c2cc(-c3c(C)cc(C)cc3C)no2)cc1 ?
-0.845

* * *

Experimental target: Fibroblast growth factor 2 (Homo sapiens)
Assay protocol: FGF2 binders on small-molecule microarrays, primary screen, biochemical, small-molecule microarray, 635/667 nm fluorescence (AID 1133)
Study conditions: small-molecule microarray binding, FGF2, fluorescence 635/667; higher = more signal
Endpoint: composite z-score
I only need the number, thanks.

Compound	composite z-score
CCOC(=O)NN=C1C[C@@H](O)[C@@H](O)[C@@H]2[C@@H]3C(=O)N(C4CCCCC4)C(=O)[C@@H]3CC[C@@H]12	0.365
N#Cc1ccc(NN2C(C(O)c3cccc4ccccc34)C=CC3C(=O)N(c4ccccc4)C(=O)C32)cc1 (stereo not drawn)	-0.24
O=C1[C@H]2[C@H]3[C@H](O)[C@H](O)CC(=NO[C@@H]4O[C@H](CO)[C@@H](O)[C@H](O)[C@H]4O)[C@H]3CC[C@H]2C(=O)N1C1CCCCC1	-0.0148
COCCOC(=O)N1C(=O)[C@@]2(c3cc(C#CCNC(N)=O)ccc31)[C@H](c1ccccc1OCCO)N1[C@H](c3ccccc3)[C@H](c3ccccc3)OC(=O)[C@H]1[C@@H]2C(=O)N1CCN(c2ncccn2)CC1	1.55
CO[C@H]1COC(=O)[C@H](C)NC(=O)[C@@H](C)COC(=O)CC=C[C@@H]1C	1.34
CCCC[C@H]1OB(O)C[C@H]2C1=C(C)C[C@H]1C(=O)N(C)C(=O)[C@H]12	1.31
O=C1[C@H]2[C@H]3[C@H](O)[C@H](O)CC(=NO[C@@H]4O[C@H](CO)[C@@H](O)[C@H](O)[C@H]4O)[C@@H]3CC[C@H]2C(=O)N1Cc1ccccc1	0.16
CN1C(=O)C2C(C1=O)C1C=C(CCCO)C2C(c2ccc(CN3CCCC3)cc2)N1C (stereo not drawn)	-0.052

Would you mind telling me what composite z-score value was observed for COCCOC(=O)N1C(=O)[C@@]2(c3cc(C#CCNC(N)=O)ccc31)[C@H](c1ccc(O)cc1)N1[C@H](c3ccccc3)[C@H](c3ccccc3)OC(=O)[C@H]1[C@@H]2C(=O)N1CCCCCCC1 ?
1.5

Would you mind telling me what composite z-score value was observed for CO[C@@H]1COC(=O)CC=C[C@@H](C)[C@@H]2C=C[C@H](O)[C@@H](COC(=O)CCC[C@H]1C)O2 ?
1.3

Would you mind telling me what composite z-score value was observed for O=C1[C@H]2[C@H]3[C@H](O)[C@H](O)CC(=NOCc4ccccc4)[C@H]3CC[C@H]2C(=O)N1c1ccc(F)cc1F ?
0.0342

Would you mind telling me what composite z-score value was observed for CO[C@@H]1COC(=O)CCC[C@@H](C)[C@H](OC)COC(=O)CCC[C@H]1C ?
0.685

Would you mind telling me what composite z-score value was observed for CC(C)=NOCc1cccc(-c2cc(-c3ccccc3)no2)c1 ?
0.727

* * *

Assay protocol: basal S. cerevisiae growth modulation, no modifier, primary screen, OD600, strain BY4716, 24 h, basal condition (AID 1173)
Study conditions: OD600, 24 h, higher = more signal, called active from +8 up or from −8 down
z-score vs 0.2: at or above is YES, below is NO.

>>> print(df.to_string())
                                   compound  assigned_class
0  COC(=O)[C@@]1(Cc2ccccc2)[C@H]2c3cc(C(=O)N4CCCC4)n(Cc4ccccn4)c3C[C@H]2CN1C(=O)c1ccccc1             YES
1  O=C(NN=C1C[C@@H](O)[C@@H](O)[C@@H]2[C@@H]3C(=O)N(c4cccc(Oc5ccccc5)c4)C(=O)[C@@H]3CC[C@@H]12)OCc1ccccc1             YES
2  O=C1C[C@@H](O)[C@@H](O)[C@@H]2[C@@H]3C(=O)N(Cc4ccc5c(c4)OCO5)C(=O)[C@@H]3CC[C@@H]12              NO
3  CC(C)NC(=O)[C@@H]1c2ccccc2C(=O)N(CC23CC4CC(CC(C4)C2)C3)[C@H]1c1ccc(CO)cc1              NO

# check: z-score of CCc1cccc(NC(=O)O[C@H]2[C@H](OC(=O)Nc3ccc4c(c3)OCO4)[C@@H](OC(=O)Nc3ccc4c(c3)OCO4)[C@@H](OC)O[C@@H]2CO)c1 is greater than or equal to 0.2
YES

# check: z-score of NCCCCCNC(=O)[C@@H]1C[C@@H]2C(=O)N3CCC[C@H]3C(=O)N2[C@@H]1c1cccc(OCCO)c1 is greater than or equal to 0.2
NO

# check: z-score of CC(C)CON=C1C[C@@H](O)[C@@H](O)[C@@H]2[C@@H]3C(=O)N([C@@H](C)c4ccccc4)C(=O)[C@@H]3CC[C@H]12 is greater than or equal to 0.2
NO

# check: z-score of CCOC(=O)NN=C1C[C@@H](O)[C@@H](O)[C@@H]2[C@@H]3C(=O)N(C4CCCCC4)C(=O)[C@@H]3CC[C@@H]12 is greater than or equal to 0.2
NO

* * *

Experimental target: E3 ubiquitin-protein ligase XIAP (Homo sapiens)
Assay protocol: XIAP binders, primary screen, biophysical, small-molecule microarray, fluorescence 635 nm (AID 1181);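 note: score merges 667 nm emission and signal to noise over triplicate slides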
Study conditions: small-molecule microarray binding, higher = more signal
Endpoint: composite z-score
I only need the number, thanks.

Compound	composite z-score
CCOC(=O)[C@H](Cc1ccccc1)NC(=O)CCC1CC(OC(=O)NCc2ccc3c(c2)OCO3)CC2(CCCC(COC(=O)NCC3CCCCC3)O2)O1 (stereo not given in full)	0.257
CC(C)CON=C1C[C@@H](O)[C@@H](O)[C@@H]2[C@@H]3C(=O)N(C[C@@H]4CCCO4)C(=O)[C@@H]3CC[C@H]12	-0.174
COCCOC(=O)N1C(=O)[C@@]2(c3cc(C#CCNC(N)=O)ccc31)[C@H](c1ccccc1OCCO)N1[C@H](c3ccccc3)[C@H](c3ccccc3)OC(=O)[C@H]1[C@@H]2C(=O)N1CCN(c2ncccn2)CC1	-0.152

Would you mind telling me what composite z-score value was observed for CCCNC(=O)OC[C@H]1O[C@H](CCON=C2[C@H]3CCn4c(=O)n(-c5ccccc5)c(=O)n4[C@H]3[C@H](O)[C@@H]3O[C@H]23)C=C[C@@H]1Oc1ccc(OC)cc1 ?
-0.2

Would you mind telling me what composite z-score value was observed for COC(=O)[C@H]1COC(c2ccc(OCCCO)cc2)=N1 ?
-0.103
